# protein stability index listing for each entry below
B1: C1orf137 (parent)
chain: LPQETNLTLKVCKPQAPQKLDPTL

variants of: B1; test: protein stability index of a GFP-peptide fusion (GPS, HEK-293T) (PSI 1-6); higher = more stable; details: c terminus: a fixed tail appended;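 also: lentivirally expressed fusions sorted by FACS into six bins by GFP to DsRed ratio, PSI derived from sequencing read proportions per bin multiplied by bin number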

sequence chain	protein stability index
LPQETNLTLKVCKPQAIQKLDPTL [P17I]	4
LPQETNLTLKVCKPQAPQKLDPLL [T23L]	3.06
LPQETNLTLKVPKPQAPQKLDPTL [C12P]	4.73
LPQETNLTLKVCKDQAPQKLDPTL [P14D]	4.76
LPQETNLTLKVCKPQAPQKLPPTL [D21P]	3.35
LPQATNLTLKVCKPQAPQKLDPTL [E4A]	3.77
LPQETNLTLKVCKPQAPQQLDPTL [K19Q]	3.85
LPQETNLTLKVCKPQANQKLDPTL [P17N]	3.21
LPQETNLRLKVCKPQAPQKLDPTL [T8R]	3.57
LPQEINLTLKVCKPQAPQKLDPTL [T5I]	2.6
LPQCTNLTLKVCKPQAPQKLDPTL [E4C]	2.37
LPQVTNLTLKVCKPQAPQKLDPTL [E4V]	3.03
LPQETNLTLKVCKPQGPQKLDPTL [A16G]	3.98
LPQETNLTLKVCKPQAEQKLDPTL [P17E]	4.27
LPQEPNLTLKVCKPQAPQKLDPTL [T5P]	4.59
LPQETNLTLKVCKPSAPQKLDPTL [Q15S]	3.86
LPQETNLTLKVCKPQRPQKLDPTL [A16R]	3.58
LPQETNLTLKVCKPQAPEKLDPTL [Q18E]	3.23
LPQETNLTKKVCKPQAPQKLDPTL [L9K]	4.16
LPQETNLTLKVCKPQAPQKLDPRL [T23R]	3.48
LPQSTNLTLKVCKPQAPQKLDPTL [E4S]	3.12
LPQETNLTLKVLKPQAPQKLDPTL [C12L]	4.06
